System: Fibroblast
Experiment: Incucyte cell viability with human fibroblast; note: unitless GR value; below 1 slowed growth and below 0 cell loss
Format: toxicity, cell-based
Details: 24 h, 10 µM, compound concentration 10 uM, replicate number 2
OUTCOME_MEASURE: Growth Rate
Answer using only a numeral; do not append any unit.

Worked examples follow.
compound=COc1cnccc1Nc1nc(-c2nn(Cc3c(F)cc(OCCO)cc3F)c3ccccc23)ncc1OC observed_result=-0.03
compound=C[C@H](CCC(=O)O)[C@H]1CC[C@H]2[C@@H]3CC[C@@H]4C[C@H](O)CC[C@]4(C)[C@H]3C[C@H](O)[C@]12C observed_result=0.9
compound=COc1cc(N2CCN(C)CC2)ccc1Nc1ncc2c(n1)N(C)c1ccccc1C(=O)N2CC(F)(F)F observed_result=0.08
compound=Cc1cc(=O)oc2cc(NC(=O)[C@H](Cc3ccc(I)cc3)NC(=O)[C@H]3N[C@@H]4CC[C@H]3C4)ccc12.O=C(O)C(F)(F)F observed_result=0.61
compound=C=C(C)[C@H]1CN[C@H](C(=O)O)[C@H]1CC(=O)O observed_result=0.8
compound=Cl.Cl.N#Cc1ccc(O[C@@H]2c3ccccc3C[C@H]2N2CCC[C@@H](N)C2)c(Cl)c1 observed_result=0.37
compound=CC1(C)CCC[C@]2(C)[C@@H](C=O)C(C=O)=CC[C@@H]12 observed_result=0.73
compound=CN(C)C/C=C/C(=O)Nc1ccc(C(=O)Nc2cccc(Nc3ncc(Cl)c(-c4c[nH]c5ccccc45)n3)c2)cc1 observed_result=0.7

Moving on to another compound below.
Provide one value: measured Growth Rate of CC(C)S(=O)(=O)c1ccccc1Nc1nc(N[C@@H]2CCCN(CCCCCCCNC(=O)COc3cccc4c3C(=O)N(C3CCC(=O)N(C)C3=O)C4=O)C2)ncc1Cl (some centres not stated)
-0.36
